Experimental system: DYRK1A kinase (Homo sapiens)
Test protocol: DYRK1A kinase activity (Ser/Thr 18 peptide Z-lyte FRET assay);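 note: kinase activity read as coumarin/fluorescein emission ratio after development step, with unphosphorylated and phosphorylated peptide forms setting 0% and 100% controls, values from dose-response curves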
Setup conditions: recombinant DYRK1A, 30 μM ATP, one hour at room temperature
# pEC50 per record follows
pEC50 is a log-scale quantity: -log10 of the concentration expressed in molar.

Cc1ncc(-c2ccc3cnc(NC(=O)Cn4ccnc4)cc3n2)o1 : 7.30

IN: Retrieve pEC50 measured for Cn1cc(-c2ccc3cnc(NC(=O)[C@H]4CC[C@H](N5CCOCC5)CC4)cc3n2)cn1 and print it.
OUT: 8.15

IN: Retrieve pEC50 measured for CN1CCN(c2cc(C(=O)Nc3cc4nc(-c5cnn(C)c5)ccc4cn3)ccn2)CC1 and print it.
OUT: 8.15

IN: Retrieve pEC50 measured for CC(C)Oc1ccc(C(=O)Nc2cc3nc(-c4cnc5n4CCNC5)ccc3cn2)cc1 and print it.
OUT: 8.40

IN: Retrieve pEC50 measured for CN1CCN(c2cc(C(=O)Nc3cc4cc(-c5cn(C)nn5)cnc4cn3)ccn2)CC1 and print it.
OUT: 7.02

IN: Retrieve pEC50 measured for CC(C)CN1CCC(C(=O)Nc2cc3cc(-c4cnn(C)c4)ncc3cn2)CC1 and print it.
OUT: 8.00

IN: Retrieve pEC50 measured for CC(C(=O)Nc1cc2cc(-c3cncn3C)ncc2cn1)N1CCCC1 (centres unmarked) and print it.
OUT: 6.20

IN: Retrieve pEC50 measured for CN(C)CCNc1cc(C(=O)Nc2ncc3ccc(-c4cnn(C)c4)cc3n2)ccn1 and print it.
OUT: 8.00

IN: Retrieve pEC50 measured for Cn1cc(-c2ccc3cnc(NC(=O)[C@H]4CC[C@H](NCCF)CC4)cc3n2)cn1 and print it.
OUT: 8.05

IN: Retrieve pEC50 measured for CC(C)CN1CCC(C(=O)Nc2cc3cc(-c4cnn(C)c4)cnc3cn2)CC1 and print it.
OUT: 7.52

IN: Retrieve pEC50 measured for Cn1cncc1-c1cc2cc(NC(=O)c3ccc4c(c3)CNC4)ncc2cn1 and print it.
OUT: 8.52

IN: Retrieve pEC50 measured for O=C(Nc1cc2nc(-c3cccnc3)ccc2cn1)C1CC1 and print it.
OUT: 8.10

IN: Retrieve pEC50 measured for CN1CCC(n2cc(C(=O)Nc3cc4cc(-c5cnn(C)c5)ncc4cn3)cn2)CC1 and print it.
OUT: 8.00

IN: Retrieve pEC50 measured for Cn1ncc(-c2ccc3cnc(NC(=O)C4CC5(C4)CN(CCF)C5)nc3c2)c1CN1CCCCC1 and print it.
OUT: 7.38

IN: Retrieve pEC50 measured for CN1CCC(n2cc(C(=O)Nc3cc4cc(-c5cncc6[nH]ccc56)cnc4cn3)cn2)CC1 and print it.
OUT: 7.54

IN: Retrieve pEC50 measured for Cn1cc(-c2ccc3cnc(NC(=O)C4CCN(Cc5ncccn5)CC4)nc3c2)cn1 and print it.
OUT: 6.97

IN: Retrieve pEC50 measured for Cc1ncc(-c2cnc3cnc(NC(=O)C4CCN(C5COC5)CC4)cc3c2)s1 and print it.
OUT: 7.40
